PROTOCOL: solvent given as SMILES
MEASUREMENT PARAMETERS: in CCO
OBSERVATION TYPE: emission maximum (nm)

# MOLECULE, OBSERVATION TYPE, MEASURED NUMBER
rows = [
    ("CCCCCCOc1ccc(-c2cnc(-c3nnc(-c4ccc(OCCCCCC)cc4)o3)o2)cc1", "emission maximum", 411),
    ("OB(O)c1ccc(-c2ccc(N(c3ccccc3)c3ccccc3)cc2)cc1", "emission maximum", 422.4),
    ("CCNc1cc2c(cc1C)C(c1ccccc1C(=O)O)=C1CCCC(/C=C/C3=[N+](C)c4ccccc4C3(C)C)=C1O2", "emission maximum", 721),
    ("CC(C)c1cc(C(C)C)c(-c2nnc(-c3ccc(-n4c5ccccc5c5ccccc54)cc3)o2)c(C(C)C)c1", "emission maximum", 435),
    ("N#Cc1c(N2CCCCC2)cc(-c2ccc(O)cc2)c2c1-c1cccc3cccc-2c13", "emission maximum", 548),
    ("CC(C)=CCN1C(=O)c2cccc3c2c(cc2nc(C)oc23)C1=O", "emission maximum", 412),
    ("c1ccc2c(-c3cncnc3)c3ccccc3c(-c3cncnc3)c2c1", "emission maximum", 417),
    ("CCOC(=O)/C=C/c1cc2ccc(-c3cn(Cc4ccccc4)nn3)cc2oc1=O", "emission maximum", 435),
]

1: CCN(CC)c1ccc2c(c1)OC1=C(/C=C/C3=[N+](C)c4ccc5ccccc5c4C3(C)C)CCCC1=C2c1ccccc1C(=O)O
2: O=C1CCCc2c1[nH]c1cc3c(cc21)OCO3
emission maximum comparison. Which is larger, 1 or 2 ? # reply format: chosen label
1

A: CNc1ccc(/C=C/C#N)cc1
B: CN1/C(=C/C=C(/C=C/c2sc3ccccc3[n+]2C)c2cccc(C(F)(F)F)c2)Sc2ccccc21
Between A and B , whose recorded emission maximum is greater? In your reply, give the label of the chosen option.
B
(B: 665 nm, A: 414 nm)

###

PROTOCOL: solvent given as SMILES
MEASUREMENT PARAMETERS: in C1CCOC1
OBSERVATION TYPE: emission maximum (nm)

Recorded emission maximum, per entry:
# COMPOUND, OBSERVATION TYPE, MEASURED NUMBER
rows = [
    ("[C-]#[N+]c1ccc(-c2ccc(N(C)C)cc2)cc1", "emission maximum", 408),
    ("N#Cc1cc2ccc(O)cc2oc1=N", "emission maximum", 412),
]

P: CC1(C)Cc2c(c3ccccc3c3nc4ccccc4nc23)O1
Q: COc1ccc(-c2cc3c(s2)=CC2=C(C(F)(F)F)c4cc5sc(-c6ccc(OC)cc6)cc5n4[B-](F)(F)[N+]=32)cc1
Could you please tell me which of these two has the higher emission maximum: P or Q ? Identify your pick by its label.
Q

1: CCOC(=O)c1[nH]c(C)c(/C=C/C2=[N+]3C(=C(c4cc(OC)cc(OC)c4)c4c(C)c(I)c(/C=C/c5c(C)[nH]c(C(=O)OCC)c5C)n4[B-]3(F)F)C(C)=C2I)c1C
2: CCOC(=O)C1=CN(c2ccccc2)C=CC1c1ccccc1 (stereo not drawn)
In terms of reported emission maximum, does 1 or 2 have the smaller number? Reply with the label of the item you choose.
2

P: N#Cc1c(N2CCCC2)cc(-c2ccccc2)c2c1-c1ccccc1C2
Q: COc1cc(OC)cc(C2=C3C(C)=C(I)C(/C=C/c4ccsc4)=[N+]3[B-](F)(F)n3c(/C=C/c4ccsc4)c(I)c(C)c32)c1
Of P and Q , whose reported emission maximum is numerically smaller? Let me know the label of the one you choose.
P
